Biological target: human GABAA α5β2γ1 receptor (Homo sapiens (Human), UniProt P31644+Q8N1C3)
Assay: Radioligand binding assay for γ1-containing GABAA subtypes, [3H]RO7239181 competition (α5β2γ1)
PROPERTY_LABEL: pKi
Remember, pKi is on a log scale: it is -log10 of the molar concentration.

Fill in the blank: the reported pKi of [2H]C([2H])([2H])NC(=O)c1nc2n(n1)-c1ccc(Cl)c(Cl)c1C(c1c(F)cccc1F)=NC2 is ____.
9.12

Fill in the blank: the reported pKi of C[C@@H]1N=C(c2c(F)cccc2F)c2c(ccc(Cl)c2Cl)-n2nc(C(N)=O)nc21 is ____.
9.14

Fill in the blank: the reported pKi of COC1CN(C(=O)c2nc3n(n2)-c2ccc(Cl)c(Cl)c2C(c2c(F)cccc2F)=NC3)C1 is ____.
9.08

Fill in the blank: the reported pKi of C[C@@H]1N=C(c2c(F)cccc2F)c2c(ccc(C(F)(F)F)c2Cl)-n2nc(NC(=O)NC3COC3)nc21 is ____.
8.77
